Provenance of the data: patent US20100081679A1

# protocolSummary: logP determination via retention times, calibrated with unbranched alkan-2-ones
# Format: physicochemical
# measurementConditions: HPLC on reversed-phase C 18, method **: 43° C.; 0.1% aqueous phosphoric acid and acetonitrile; linear gradient 10% to 95% acetonitrile
Marks after values point to notes of the source that are not given here.
propertyName: logP

compound	observedResult
CN(c1nc(Nc2ccccc2)ncc1Cl)C1CC1 [compound 734]	2.7**

Qu. Look up logP of O=C1CCCN1c1cc(Nc2ncc(Br)c(NC3CC3)n2)ccc1F [compound 771] and report it.
Ans. 1.61**

Qu. Look up logP of COc1cc(Nc2ncc(C(F)(F)F)c(NC3CC3)n2)cc(OC)c1OC [compound 719] and report it.
Ans. 2.56**

Qu. Look up logP of CSc1cccc(Nc2ncc(Cl)c(N(C)C3CC3)n2)c1 [compound 738] and report it.
Ans. 3.59**

Qu. Look up logP of COCc1cccc(Nc2ncc(Cl)c(N(C)CC3CC3)n2)c1 [compound 965] and report it.
Ans. 2.71**

Qu. Look up logP of CC(=O)Nc1cc(Nc2ncc(C(F)(F)F)c(NC3CC3)n2)ccc1C [compound 662] and report it.
Ans. 1.82**

Qu. Look up logP of CC(=O)Nc1ccc(Nc2ncc(C(F)(F)F)c(NC3CC3)n2)cc1 [compound 956] and report it.
Ans. 1.64**

Qu. Look up logP of CN(c1nc(Nc2cccc(N3CCCC3=O)c2)ncc1Cl)C1CC1 [compound 769] and report it.
Ans. 2.22**

Qu. Look up logP of CN(CC1CC1)c1nc(Nc2cccc(N3CCCC3=O)c2)ncc1Cl [compound 964] and report it.
Ans. 2.21**

###

# protocolSummary: logP determination via retention times, calibrated with unbranched alkan-2-ones
# Assay type: physicochemical
# measurementConditions: HPLC reversed-phase C 18, EEC Directive 79/831 Annex V.A8; method **: 43° C., 0.1% aqueous phosphoric acid and acetonitrile, linear gradient 10% to 95% acetonitrile
Marks after values point to notes of the source that are not given here.
# logP annotations

Example cases with answers are listed next.
molecule	logP
O=c1ccccn1-c1cccc(Nc2ncc(Br)c(NC3CC3)n2)c1 [compound 833]	1.46**
CON(C(C)=O)c1cccc(Nc2ncc(Cl)c(NC3CC3)n2)c1 [compound 850]	1.57**

Qu. Look up logP of CSc1cccc(Nc2nc(C)c(Cl)c(NC3CC3)n2)c1 [compound 837] and report it.
Ans. 2.23**

Qu. Look up logP of O=C1OCCN1c1cccc(Nc2ncc(C(F)(F)F)c(NC3CC3)n2)c1 [compound 834] and report it.
Ans. 2.18**

Qu. Look up logP of Brc1cnc(Nc2cccc(I)c2)nc1NC1CC1 [compound 860] and report it.
Ans. 3.34**

###

# protocolSummary: logP determination via retention times, calibrated with unbranched alkan-2-ones
# Type: physicochemical
# measurementConditions: pH 2.3; read-out: logP (pH2.3)
Counter-ions that a name gives are not always drawn.
propertyName: chromatographic logP

Example cases with answers are listed next.
compound	observedResult
CC(C)Oc1ccc(Nc2ncc(Cl)c(NCC3CC3)n2)cc1 [Example 55, hydrochloride]	2.11
Clc1ncc(I)c(NC2CC2)n1	2.19
Clc1ncc(Br)c(NC2CC2)n1	1.97
CC(Nc1nc(Cl)ncc1Cl)C1CC1 (centres unmarked)	2.97
O=C(O)c1ccc(Nc2ncc(Cl)c(NC3CC3)n2)cc1	1.55
FC(F)(F)c1cnc(Cl)nc1NCC1CC1	3.4

Qu. Look up chromatographic logP of CC(C)NC(=O)c1ccc(Nc2ncc(Cl)c(NC3CC3)n2)cc1 [Example 43] and report it.
Ans. 1.73

Qu. Look up chromatographic logP of O=c1[nH]c(Nc2ccccc2)ncc1Cl [2-Anilino-5-chloropyrimidin-4(3H)-one] and report it.
Ans. 1.56

Qu. Look up chromatographic logP of Clc1ncc(Cl)c(NC2CC2)n1 and report it.
Ans. 1.79

Qu. Look up chromatographic logP of Clc1ncc(Br)c(NCC2CC2)n1 and report it.
Ans. 2.69

Qu. Look up chromatographic logP of Fc1cnc(Cl)nc1NC1CC1 and report it.
Ans. 1.42

Qu. Look up chromatographic logP of Ic1cnc(Nc2ccccc2)nc1NC1CC1 and report it.
Ans. 1.82

Qu. Look up chromatographic logP of CCOC1(Nc2nc(Cl)ncc2Cl)CC1 and report it.
Ans. 2.09

Qu. Look up chromatographic logP of Clc1ncc(Cl)c(NCC2CC2)n1 and report it.
Ans. 2.51

Qu. Look up chromatographic logP of FC(F)(F)c1cnc(Cl)nc1NC1CC1 and report it.
Ans. 2.39

Qu. Look up chromatographic logP of COc1cnc(Cl)nc1NC1CC1 and report it.
Ans. 1.38

Qu. Look up chromatographic logP of Clc1cnc(Nc2ccccc2)nc1Cl [4,5-Dichloro-N-phenylpyrimidine-2-amine] and report it.
Ans. 3.52

Qu. Look up chromatographic logP of Cc1cnc(Cl)nc1NC1CC1 and report it.
Ans. 1.28

Qu. Look up chromatographic logP of Clc1cnc(Nc2ccccc2)nc1NC1CC1 [Example 2] and report it.
Ans. 1.61

Qu. Look up chromatographic logP of NS(=O)(=O)c1cccc(Nc2ncc(Cl)c(NC3CC3)n2)c1 [Example 15] and report it.
Ans. 1.37
